The entries below are paired with their reported CC50.
assay_explanation: HEp-2 cell cytotoxicity, dose response, cytotoxicity control for RSV inhibitor project, HTS (AID 2410)
Type: functional
measurement_context: human respiratory syncytial virus
Active and inactive are the calls of the source. How the calls were made is not given here.

[
  {
    "compound": "O=C(COC(=O)c1ccccc1C(=O)c1ccccc1)Nc1ccc(SC(F)F)cc1",
    "CC50": "16.4 µM (active)"
  },
  {
    "compound": "O=S(=O)(c1cccc(-c2csc(-c3cccnc3)n2)c1)N1CCCCC1",
    "CC50": "28.9 µM (active)"
  },
  {
    "compound": "CCn1cnc2cc(NCc3ccccc3Cl)ccc21",
    "CC50": "25 µM (active)"
  },
  {
    "compound": "O=[N+]([O-])c1ccc2nc(SCc3ccccc3Cl)sc2c1",
    "CC50": "29 µM (active)"
  },
  {
    "compound": "Cc1ccc2c(c1)c1c3n2CCN(C(=O)Cn2c(-c4ccccc4)noc2=O)C3CCC1 (stereo unspecified)",
    "CC50": "38.8 µM (active)"
  },
  {
    "compound": "Cn1cc(/C=C2\\SC(=O)N(c3ccc(O)cc3)C2=O)c2ccccc21",
    "CC50": "16 µM (active)"
  }
]
